# experimental_protocol: Waters ACQUITY UPLC BEH Shield RP18, 100 × 2.1 mm, 1.7 µm, 40 °C, 0.4 mL/min, estimated dead time 0.55 min; A: water + 0.1% formic acid; B: acetonitrile; gradient (min/%B) 0/2 10/18 15/28 22/40 32/67
# assay_setup: stereoisomer not certain
Measured LC retention time of individual entries

molecule	LC retention time, min
COc1cc(O)c2c(=O)c(OC)c(-c3ccc(O)cc3)oc2c1	15.1
O=C(C=Cc1ccc(OC2OC(CO)C(O)C(O)C2O)cc1)c1ccc(O)cc1O (stereo unspecified)	14.3
CC1(C(=O)O)CCC2(C)CCC3(C)C(=C2C1)C=CC1C2(C)CCC(OC4OC(C(=O)O)C(O)C(O)C4OC4OC(C(=O)O)C(O)C(O)C4O)C(C)(CO)C2CCC13C (stereo unspecified)	22.3
COc1cc(O)cc2oc(=O)c(-c3ccc(O)cc3O)cc12	19.9
CC1(CO)CC(O)C2(C)CCC3(C)C(=CC(=O)C4C5(C)CCC(OC6OC(C(=O)O)C(O)C(O)C6OC6OC(C(=O)O)C(O)C(O)C6O)C(C)(C)C5CCC43C)C2C1 (stereo unspecified)	16.8
COc1cc2oc(-c3ccc(O)c(CC=C(C)C)c3)c(O)c2cc1OC	24.8
CC1(C(=O)O)CCC2(C)CCC3(C)C(=CC(=O)C4C5(C)CCC(OC6OC(C(=O)O)C(O)C(O)C6OC6OC(C(=O)O)C(O)C(O)C6O)C(C)(CO)C5CCC43C)C2C1 (stereo unspecified)	20.7
O=C1CC(c2ccc(O)cc2)Oc2cc(O)ccc21 (stereo unspecified)	14.6
CC12CC(OC1=O)C1(C)CCC3(C)C(=CC(=O)C4C5(C)CCC(OC6OC(C(=O)O)C(O)C(O)C6OC6OC(C(=O)O)C(O)C(O)C6O)C(C)(C)C5CCC43C)C1C2 (stereo unspecified)	19.8
CC(C)=CCc1c(O)cc2oc(-c3ccc(O)cc3)c(O)c(=O)c2c1O	28.1
O=c1cc(-c2ccc(O)cc2)oc2c(C3OCC(O)C(O)C3O)c(O)c(C3OC(CO)C(O)C(O)C3O)c(O)c12 (stereo unspecified)	8.56
COc1c(CC=C(C)C)c(O)cc2oc(=O)c3c4ccc(O)cc4oc3c12	27.2
COc1c(CC=C(C)C)c(O)cc2c1CC(c1ccc(O)c(CC=C(C)C)c1O)CO2 (stereo unspecified)	28.7
CC(C)=CCc1cc(-c2oc3cc(O)cc(O)c3c(=O)c2O)ccc1O	26.1
COc1ccc(-c2coc3cc(OC4OC(CO)C(O)C(O)C4O)ccc3c2=O)cc1 (stereo unspecified)	12.3
O=C1CC(c2ccc(O)cc2)Oc2cc(OC3OC(CO)C(O)C(O)C3O)ccc21 (stereo unspecified)	9.18
